assayComment: yeast display, Sf9 membrane polyspecificity reagent, FACS + sequencing; frameworks hold sequencing errors
measuredProperty: polyreactivity (PSR sort gate)

QVQLVETGGCLVQAGGSLRLSCAASGFIFYIYAMGWYRQAPGKERELVAAITSGGSTYYADSVKGRFTITRDNAKNTVYLQMNSLKPDDTAVYYCASESYYGYDYWGQGTQVTVSS low polyreactivity
QLQLHESGGGLVQAGGSLRLSCAASGTISYAGPMGWYRQAPGKEREFVAGIGVGSNTNYADSVKGRYTIIRDNAKNTVYLQMNSLKPEDTAVYYCAVGGYAPLGRPYWGQGTQVTVSS low polyreactivity

---

assayComment: yeast display, Sf9 membrane polyspecificity reagent, FACS + sequencing; frameworks hold sequencing errors
measuredProperty: polyreactivity (PSR sort gate)

QVQLVESGGGLVQAGGSLRLSCAASGSIFENNAMGWYRQAPGKERELVAAISSDDTTNYADSVKGRFTISRDNAKNTVYLQMNSLKPEDTAVYYCATDYDVYGYPYDYGYWGQGTQVTVSS low polyreactivity
QVQLVESGGGLVQAGGSLRLSCAASGSIIKSYAMGWYRQAPGKGRELVAAISSGGSTNYADSVKGRFTISRDNAKNTVYLQMNSLKPEDTAVYYCAARFRVDHRPYYYWGQGTQVTVSS low polyreactivity

---

assayComment: yeast display, Sf9 membrane polyspecificity reagent, FACS + sequencing; frameworks hold sequencing errors
measuredProperty: polyreactivity (PSR sort gate)

QVQLVESGGGLVQAGGSLRLSCAASGRTFFYYTMGWYRQAPGKEREFVASISWSGASTYYADSVKGRFTISRDNAKNTVYLQMNSLKPEDSAVYYCAAPVTGGAYGYDYWGQGTQVTVSS high polyreactivity
QVQLVESGGGLVQAGGSLRLSCAASGSIFGSNAMGWYRRAPGKERELVAVINASGASTYYADSVKGRFTISRDNAKNTVYLQKNSLKPEDTAVYYCAKDPFPFPGGDYWGQGTQVTVSS low polyreactivity
QVQLEESGGALVQAGGSLRLSGAASVSTFAYYAMGWYRQAPGKERELVAAISWSGGSTYYADSVKGRFTISRDNAKNTVYLLMNSLKPEDTAVYYCNKRNVLDYDYWGQGTQVTVSS low polyreactivity
QVQLVESGGGLVQAGGSLRLSCAASGRTFWGYAMGWYRQAPGKERELVAAISWSGTSTYYADSVKGRFTISRDNAKNTVYLQMNRLKPEDSAVYYCARAVNDWSRKYNYWGQGTLVTVSS high polyreactivity
QVQLVESGGRIVQAGGSLRLSCAASGFIYSKYAMGWSRPAPGKEGQLVAAISSSGGYTYYADSVKGRFTISRDNAKNTVYLQMNSLKPEATAVYYCNADYLFYAFDYWGHGTQVTVSS low polyreactivity
QVQLVESGGGLVQAGGSLRLSCAASGSTFFYNVMGWYRQAPGKERELVAAITSSGGGTYYADSVKGRFTISRDNAKNTVYLQMNSLKPEDTAVYYCAKPVWLRDYRHGGRFGYWGQGTQVTVSS low polyreactivity
QVQLVESGGGLVQAGGSLRLSCAASGIIFVPYAMGWYRQAPGKERELVAANNSGGNTYYADSVKGRFTISRDNAKNTVYLLIYSLKPEDTAVYYCGAYSKYPVFDYNYWGQGTQVTVSS high polyreactivity
QVQLVESGGGLVQAGGSLRLICAASGSIFRINAMGWYRQAPGKEMELVAAITGRVGSTYYADSVKGRFTISRDNAKNTVYLQMNSLKPEDTAVYYCAARAGSSRYTREYRYDYWGQGTQVTVSS high polyreactivity

Query: GET /values?readout=polyreactivity (PSR sort gate)&item= QVQLVDSGGGLVQAGGSLRLSCAASGNTIGRNAMGWYRQAPGKEWELVAAISFSGSRTYYADSVKGRFTISRDNAKNSVYLQMNILKPEDTAVYNFIAPEGRKPYDSWVQGTQVTVSS
Response: low polyreactivity

Query: Entry under review: QVQLVESGGGLVQAGGSLRLSCAASGYTFSLYAMGWYRQAPGKERELVAAISSGDRTFYADSVKGRFTISRDNAKNTVYLQMNSLKPEDTAVYYCAARRYYVASIYRYDSWGQGTQVTVSS . Reported polyreactivity (PSR sort gate)?
Response: high polyreactivity

Query: Which measured polyreactivity (PSR sort gate) value corresponds to QVQLVESGGGLVQAGGSLRLSCAASGRIFPYYAMGWYRQAPGKERELVASIRYSAVNTYYADSVKGRFTISRDNAKNTVYVQMNSLKPEDTAVYYCWYTQNTLGNYWGQGTQVTVSS ?
Response: low polyreactivity

---

assayComment: yeast display, Sf9 membrane polyspecificity reagent, FACS + sequencing; frameworks hold sequencing errors
measuredProperty: polyreactivity (PSR sort gate)

For orientation, consider the following solved cases.
QVQLVESGGGLVQAGGSLRLSCAASGSIFYSNAMGWYRQAPGKERELVAAISFTGGTTYYADSVKGRFTISRDNAKNTVYLQMNSLKPEDTAVYYCNKLYHHYYGYWGQGTQVTVSS high polyreactivity
QVQLVETVGGLVQAGFSLRLSCAASGFTYGAYAMGLYRQPPGKERELVAAITLRTGGSTYYADSVKGRFTISRDNAKYTVYLQMNSLKPEDTAVYYCAARVGLSPGGYGYWGQGTQVTVSS high polyreactivity
QVQLVESGGGLVQAGGSLRLSCAASGRTFRHYAMGWYRQAPGKEREFVAAISRSGGSTRYADSVKGRFTISRDNAKNTVYLQMNSLKPEDTAVYYCAATSRSYNDYDYWGQGTQVTVSS high polyreactivity
QVQLVESGGGLVQAGGSLRLSCAASGTFHKYAMGWYRQAPGKERELVASISRSGGSTSYADSVKGRFTISRDNAKNTVYLQMNSLKPEDTAVYYCNAYQSSGRYRNSYGYWGQGTQVTVSS high polyreactivity
QVQLVESGGGLVQAGGSLRLSCAASGFTFAGYAMGWYRQAPGKERELVAAISISGGRTYYADSVKGRFTSSRDYAKNTVYLQMNSLKPEDTAVYYCNAASREPSGYDYWGQGTQVTVSS high polyreactivity
QVQLEESGGGLVQAGGSLRLSCAASGSIFEWNDMGWSRQAPGKEREFVAAITSTDDGTYYADSVKGRFTISRDNAKNTVYLQMNSLKPEDTAVYYCAKRAWGSPYGYWGQGTQVTVSS low polyreactivity

Query: Fill in the blank: the reported polyreactivity (PSR sort gate) of QVQLVESGGGLVQAGGSLRLSCAASGRIFWNYAMGGYRQAPGKERELVASINWSGGSTYYADSVKGRFTISRDNAKNTVYLQMNSLKPEDTAVYYCNKDGRVYLDHDYWGQGTQVTVSS is ____.
Response: low polyreactivity

Query: What value of polyreactivity (PSR sort gate) has been reported for the following sequence? QVQLVESGGGLVQAGGSLRLSCAASGFTFVRYAMGWYRQAPGKDRELVAAISKSGGRTYYTDSVKGRFTISRDNAKTTVYLQMNSLKPEDTAVYYCAADPVSDYYGYGYWGQGTQVTVSS
Response: high polyreactivity

---

assayComment: yeast display, Sf9 membrane polyspecificity reagent, FACS + sequencing; frameworks hold sequencing errors
measuredProperty: polyreactivity (PSR sort gate)

Here's what some known entries look like.
HDQLVESGGGLVQAGGSLRLSCAASGSTFTINVMGWYRQAPGKERELVAAINGGGRTNYADSVKGRFTISRDNAKNTVYVQMNILKPEDTAVYYCAADGLSNVRQMDYWGQGTQVTVSS low polyreactivity
QVQLVESGGGLDQAGGSLRLSCAASGNIFSDSTMGWYRQAPGKEIELVAAISGDGGTTYYADSVKGRFTISRDNAKHTVYLQMNSLKPEDTAVYFCAGDGYYDAYDQFFIVYYEYDYWGQGTQVTVSS low polyreactivity
QVQLVESGGGLVQAGGSLRLSCAASGFTSGYNVMGWYRQEPGKERELVAAISWRGTSTYYADSVKGRFTISRDNAKNTVYLQMNSLKPEDTAVYYCAADRYWRLSGYEYWGQGTQVTVSS high polyreactivity
QVQLVESGGGLVQAGGSLRLSCASSVSTVKYAMGWYRQAPGKERELVAAISKSAGRTYYADSVKGRFTISRDNAKNTVYLQMNSLKPVDTAVYYCADRQSYYGDDYWGQCTQVTVSS high polyreactivity
QVQLVESGGGLVQAGGSLRLSCPASGSIFRFYTMGWYRQAPGKERELVASITWTGGSSYYADSVKGRFTISRDNAKNTVYLQMNSLKPEDTAVYYCAARRYLRLVGRYDYWGQGTQVTVSS low polyreactivity
QVQLVESGGGLVQAGGSLRLSCAASGFTFLGYAMGWYRKAPGKERELDASITYGGDSTYYADSVKARFTISRDNAKNTFYLEMISLKPEDTAVYYCNARPSYWWGGRLYGYWGQGSQVTVSS high polyreactivity
QVQLVESGGGLVQAGGSLRLSCAASGLTFWNNAMGWYRQAPGKERELVARINNGDNTYYADSVKGRFTISRDNAKNTVYLQMNSLKPEDTAVYYCAAKRYSNIPWIHDISTFYYWGQGTQVTVSS low polyreactivity
QVQLVESGGGLVQAGGSLRLSCAASGYTFSPNDMGWYRKAPGKERELVAAITSSVGSTYYADSVKGRFTISRDNAKNTVYLQMNSLKPEDTAVYYCARTYQVGDSIDDYWGQGTQVTVSS low polyreactivity
QVQLVESGGGLVQAGGSLRLSCAASGSIFQQYAMGWYRQAPGKERELVAAISWGDGSTYYADSVKGRFTISRDNAKNTVYLQMNSLKPEDTAVYYCNAYASAPLWSLEDDYWGQGTQVTVSS low polyreactivity
QVQLVESGGGLVQAGGSLRLSCAASGFTFRRYDMGWYRQAPGKERELVATINRGGSTDYADSVKGRFTISRDNAKNTVYLQMNSLKPEDNAVYYCAADSYSTCADDYWGQGTQVTVSS high polyreactivity

Here is the next item to consider.
Query: # get_value(readout='polyreactivity (PSR sort gate)', item= QVQLVESGGGLVQAGGSLRLSCAASGRILLYNAMGWYRQAPGKERELVAAISRSGGSTYYADSVKGRFTISRDNAKNTVYLQMNSLKPEDTAVYYCAAQHGYPRYYYWGQGTQVTVSS )
Response: high polyreactivity
